This collection of values is drawn from patent US20250250357A1.

biological target: T1, human MSLN-FL-his protein (human, UniProt Q13421 296-580); assay: ELISA, coated antigen, antibody 0.2 nM
T1 construct: Made in HEK293E cells, purified on nickel column; also called hMSLN-FL-his; human MSLN full-length protein; not shown: His tag
T1 sequence (Q13421 other isoform, or with tags, fused parts or gaps): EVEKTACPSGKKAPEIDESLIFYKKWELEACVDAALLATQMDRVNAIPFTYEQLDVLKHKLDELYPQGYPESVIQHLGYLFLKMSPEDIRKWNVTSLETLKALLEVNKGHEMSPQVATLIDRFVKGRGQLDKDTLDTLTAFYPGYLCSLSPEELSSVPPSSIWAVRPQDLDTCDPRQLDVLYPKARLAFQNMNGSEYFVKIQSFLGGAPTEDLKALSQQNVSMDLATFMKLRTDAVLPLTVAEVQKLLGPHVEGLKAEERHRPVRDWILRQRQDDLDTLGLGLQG
measurement-kind: OD450
Output spec: single numeric token, no unit.

Below, each entry is followed by its recorded OD450 result.
- S009-F7.21.16 chimeric antibody (antibody, human IgG1, kappa, V domains shown, Human-murine chimeric antibody, human IgG1/kappa constant regions) VH: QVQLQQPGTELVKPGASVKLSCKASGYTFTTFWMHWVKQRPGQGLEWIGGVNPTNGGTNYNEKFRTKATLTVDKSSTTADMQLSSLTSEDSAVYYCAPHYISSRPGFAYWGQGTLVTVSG VL: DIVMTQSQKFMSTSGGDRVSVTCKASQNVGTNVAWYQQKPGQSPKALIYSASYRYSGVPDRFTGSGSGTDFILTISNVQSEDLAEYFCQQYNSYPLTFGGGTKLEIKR: 2.15
- S009-F7.12.13 chimeric antibody (antibody, human IgG1, kappa, V domains shown, Human-murine chimeric antibody, human IgG1/kappa constant regions) VH: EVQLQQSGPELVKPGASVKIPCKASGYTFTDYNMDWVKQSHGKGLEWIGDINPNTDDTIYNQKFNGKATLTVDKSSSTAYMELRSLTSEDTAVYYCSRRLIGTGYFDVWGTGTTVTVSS VL: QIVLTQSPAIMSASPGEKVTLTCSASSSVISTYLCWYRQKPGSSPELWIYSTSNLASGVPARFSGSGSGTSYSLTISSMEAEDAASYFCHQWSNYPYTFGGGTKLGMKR: 2.14

Let us examine a further case.
GET /value?item= S009-F7.25.19 chimeric antibody (antibody, human IgG1, kappa, V domains shown, Human-murine chimeric antibody, human IgG1/kappa constant regions) VH: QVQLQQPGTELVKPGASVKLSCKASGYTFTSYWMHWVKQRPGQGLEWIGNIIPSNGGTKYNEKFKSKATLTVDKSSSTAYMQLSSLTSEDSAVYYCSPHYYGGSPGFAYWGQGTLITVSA VL: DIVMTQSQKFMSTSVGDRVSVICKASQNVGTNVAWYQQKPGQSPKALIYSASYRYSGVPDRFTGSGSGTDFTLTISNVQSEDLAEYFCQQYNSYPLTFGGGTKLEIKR &field=OD450 returns 2.4
